Documented koff across a set of binders
biological target: SARS-COV-2 RBD extracellular domain expressed with a C-terminal myc-myc-hexahistidine tag (SARS-COV-2 RBD-mmH) (SARS-CoV-2); experiment: SPR Biacore, mAb captured on anti-hFc, RBD-mmH analyte, 37 C

| binder | koff [s⁻¹] |
| --- | --- |
| mAb14230 (antibody, V domains shown) VH: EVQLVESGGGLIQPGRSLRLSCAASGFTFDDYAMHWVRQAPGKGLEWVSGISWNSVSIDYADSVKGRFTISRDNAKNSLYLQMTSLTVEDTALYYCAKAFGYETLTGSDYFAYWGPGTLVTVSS VL: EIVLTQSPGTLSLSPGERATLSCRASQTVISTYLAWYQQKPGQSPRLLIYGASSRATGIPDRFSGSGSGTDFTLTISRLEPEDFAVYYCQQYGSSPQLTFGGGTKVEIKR | 0.00876 |
| mAb15165 (antibody, V domains shown) VH: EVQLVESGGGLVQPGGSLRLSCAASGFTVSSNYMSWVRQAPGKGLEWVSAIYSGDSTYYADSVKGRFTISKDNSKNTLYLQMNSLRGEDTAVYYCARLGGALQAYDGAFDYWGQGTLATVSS VL: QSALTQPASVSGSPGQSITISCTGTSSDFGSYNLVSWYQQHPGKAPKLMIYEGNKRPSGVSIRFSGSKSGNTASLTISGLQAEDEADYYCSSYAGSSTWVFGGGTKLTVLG | 0.00147 |
| mAb14285 (antibody, V domains shown) VH: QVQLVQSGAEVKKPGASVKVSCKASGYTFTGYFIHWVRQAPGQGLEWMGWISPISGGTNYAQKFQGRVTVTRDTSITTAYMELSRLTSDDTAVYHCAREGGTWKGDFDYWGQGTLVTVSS VL: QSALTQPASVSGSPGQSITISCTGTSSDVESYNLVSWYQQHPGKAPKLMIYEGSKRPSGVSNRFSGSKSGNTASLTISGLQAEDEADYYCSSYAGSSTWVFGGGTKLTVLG | 0.0274 |

Data origin: patent US20260069689A1
